# tested on: PRMT5 (Homo sapiens)
# Construct: purchased Viva (custom protein)
# Sequence (O14744 whole entry): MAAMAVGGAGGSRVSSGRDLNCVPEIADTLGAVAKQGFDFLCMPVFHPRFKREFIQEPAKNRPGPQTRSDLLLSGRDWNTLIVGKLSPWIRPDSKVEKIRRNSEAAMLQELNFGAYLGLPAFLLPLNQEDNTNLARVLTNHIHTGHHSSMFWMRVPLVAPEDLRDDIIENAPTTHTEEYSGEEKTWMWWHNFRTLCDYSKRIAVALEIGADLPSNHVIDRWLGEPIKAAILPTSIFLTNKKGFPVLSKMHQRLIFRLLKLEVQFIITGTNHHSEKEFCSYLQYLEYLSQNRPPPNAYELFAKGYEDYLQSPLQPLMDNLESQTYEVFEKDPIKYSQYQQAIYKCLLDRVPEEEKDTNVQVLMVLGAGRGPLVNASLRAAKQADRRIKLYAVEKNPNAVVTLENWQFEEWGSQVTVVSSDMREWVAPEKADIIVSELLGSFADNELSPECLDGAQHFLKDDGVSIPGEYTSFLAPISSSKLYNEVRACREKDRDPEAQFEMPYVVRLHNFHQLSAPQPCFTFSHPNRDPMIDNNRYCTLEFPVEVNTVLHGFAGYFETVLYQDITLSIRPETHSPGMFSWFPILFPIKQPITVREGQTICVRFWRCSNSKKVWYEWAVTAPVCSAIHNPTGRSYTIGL
# Sequence (Q9BQA1 whole entry partner): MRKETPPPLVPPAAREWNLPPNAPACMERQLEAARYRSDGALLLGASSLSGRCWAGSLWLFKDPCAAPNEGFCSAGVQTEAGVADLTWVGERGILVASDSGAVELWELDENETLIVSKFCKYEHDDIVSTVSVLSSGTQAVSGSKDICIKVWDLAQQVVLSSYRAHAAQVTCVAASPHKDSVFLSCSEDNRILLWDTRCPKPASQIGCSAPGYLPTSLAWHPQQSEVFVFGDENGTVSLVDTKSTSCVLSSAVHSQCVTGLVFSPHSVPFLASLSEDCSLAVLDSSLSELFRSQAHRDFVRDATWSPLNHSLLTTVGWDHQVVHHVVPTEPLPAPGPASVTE
# method summary: PRMT5 IC50 assay in the presence of MTA as cofactor
# Type: biochemical
# condition label: PRMT5, MTA as cofactor
measure: IC50

compound	measure	reported
CC(=O)N1CCC(Nc2cccc(C(=O)NC[C@H](O)CN3CCc4c(ccc(OCc5cnco5)c4C)C3)c2)C1 (stereo partly drawn) [Compound 525]	IC50	500 to 5000 nM
CC(=O)N1CC(Nc2cc(C(=O)NC[C@H](O)CN3CCc4cc(OCc5ocnc5C)ccc4C3)cc(N3CCCCC3)n2)C1 [Compound 634]	IC50	< 50 nM
Cc1cc(OCc2cnco2)cc2c1CN(C[C@@H](O)CNC(=O)c1ccnc(NC3CCC3)c1)CC2 [Compound 260]	IC50	500 to 5000 nM
O=C(NC[C@H](O)CN1CCc2cc(OCc3cnco3)ccc2C1)c1cncc(NC2CCOC2)c1 (stereo partly drawn) [Compound 355]	IC50	50 to 500 nM
COc1cc(C(=O)NC[C@H](O)CN2CCc3c(ccc(OCc4cnco4)c3Cl)C2)cc(NC2CCC2)n1 [Compound 302]	IC50	50 to 500 nM
COc1cc(C(=O)NC[C@H](O)CN2CCc3cc(OCc4ocnc4C)ccc3C2)cc(NC2CCN(C(C)=O)CC2)n1 [Compound 599]	IC50	50 to 500 nM
CCN1CCN(c2nc(NC3COC3)cc(C(=O)NC[C@H](O)CN3CCc4c(ccc(OCc5cnco5)c4Cl)C3)n2)CC1 [Compound 324]	IC50	50 to 500 nM
CCN1CCN(c2nc(NC3COC3)cc(C(=O)NC[C@H](O)CN3CCc4cc(OCc5ocnc5C)ccc4C3)n2)CC1 [Compound 544]	IC50	50 to 500 nM
CCC(=O)N1CC(Nc2cc(C(=O)NC[C@H](O)CN3CCc4c(ccc(OCc5cnco5)c4Cl)C3)ccn2)C1 [Compound 426]	IC50	50 to 500 nM
Cc1ncoc1COc1ccc2c(c1Br)CCN(C[C@@H](O)CNC(=O)c1ccnc(NC3CCCCC3)c1)C2 [Compound 346]	IC50	50 to 500 nM
CC(=O)N1CC[C@H](Nc2cc(C(=O)NC[C@H](O)CN3CCc4cc(OCc5ocnc5C)ccc4C3)ccn2)C[C@H]1C [Compound 644]	IC50	< 50 nM
CC(=O)N1CCN(c2cc(C(=O)NC[C@H](O)CN3CCc4c(ccc(OCc5ocnc5C)c4C)C3)cc(NC3CCC3)n2)CC1 [Compound 502]	IC50	50 to 500 nM
CC(=O)N1CCC(Nc2cc(C(=O)NC[C@H](O)CN3CCc4cc(OCc5ccnn5C)ccc4C3)ncn2)CC1 [Compound 140]	IC50	50 to 500 nM
CC(=O)N1CCC(Nc2cccc(C(=O)NC[C@H](O)CN3CCc4cc(OCc5cnco5)ccc4C3)c2)C1 (stereo partly drawn) [Compound 558]	IC50	500 to 5000 nM
Cc1ncoc1COc1ccc2c(c1C)CCN(C[C@@H](O)CNC(=O)c1ccnc(NC3CCCC3)c1)C2 [Compound 418]	IC50	50 to 500 nM
Cc1c(OCc2cnco2)ccc2c1CCN(C[C@@H](O)CNC(=O)c1cccc(NC3COC3)c1)C2 [Compound 424]	IC50	500 to 5000 nM
O=C(NC[C@H](O)CN1CCc2c(ccc(OCc3cnco3)c2Cl)C1)c1ccnc(NC2CCC(F)(F)CC2)c1 [Compound 425]	IC50	50 to 500 nM
O=C(NC[C@H](O)CN1CCc2cc(OCc3cnco3)ccc2C1)c1cc(NC2CCC2)nc(N2CCCCC2)c1 [Compound 320]	IC50	500 to 5000 nM
COc1ccc(C(=O)N2CCc3cc(C(=O)NC[C@H](O)CN4CCc5cc(OCc6ocnc6C)c(F)cc5C4)ccc3C2)cc1 [Compound 577]	IC50	50 to 500 nM
O=C(NC[C@H](O)CN1CCc2cc(OCc3cnco3)ccc2C1)c1ccc2c(c1)CCN(C(=O)c1ccc(Br)cc1)C2 [Compound 561]	IC50	50 to 500 nM
CC(=O)N1CCC(Nc2cc(C(=O)NC[C@H](O)CN3CCc4cc(OCc5ocnc5C)c(F)cc4C3)cc(N3CCCCC3)n2)CC1 [Compound 623]	IC50	50 to 500 nM
COCCN(C)c1cc(C(=O)NC[C@H](O)CN2CCc3c(ccc(OCc4ocnc4C)c3C)C2)cc(NC2CCC2)n1 [Compound 437]	IC50	50 to 500 nM
CC(=O)N1CCC(Nc2cc(C(=O)NC[C@H](O)CN3CCc4nc(OCc5cnco5)ccc4C3)ncn2)CC1 [Compound 412]	IC50	50 to 500 nM
CC(=O)N1CCC(Nc2cc(C(=O)NC[C@H](O)CN3CCc4cc(OCc5ocnc5C)c(F)cc4C3)ccn2)CC1 [Compound 625]	IC50	50 to 500 nM
Cc1ncoc1COc1ccc2c(c1)CCN(C[C@@H](O)CNC(=O)c1cc(NC3COC3)nc(N3CCN(C(C)(C)C)CC3)n1)C2 [Compound 396]	IC50	50 to 500 nM
CC(=O)N1CCC(Nc2cc(C(=O)NC[C@H](O)CN3CCc4c(ccc(OCc5ocnc5C)c4C)C3)cc(N3CCCCC3)n2)CC1 [Compound 595]	IC50	< 50 nM
CC(=O)N1CCC(Nc2cccc(C(=O)NC[C@H](O)CN3CCc4c(ccc(OCc5cnco5)c4C)C3)c2)CC1 [Compound 529]	IC50	50 to 500 nM

These data points were gathered from patent US11986471B2.
